Value source: ChEMBL document CHEMBL1129675

The compounds listed here are annotated with their MIC.
tested on: Streptococcus pneumoniae; assay: Inhibitory activity against Streptococcus pneumoniae; format: functional

Below are worked cases with known answers.
# query: MIC of entry `CCCCCOc1ccc(CN[C@@]2(C)C[C@@H](O[C@H]3[C@H](Oc4c5cc6cc4Oc4ccc(cc4Cl)[C@@H](C[C@H]4C[C@](C)(N)[C@@H](O)[C@H](C)O4)[C@]4(C)NC(=O)[C@H](NC(=O)[C@@H]6NC(=O)[C@H](CC(N)=O)NC(=O)[C@H](NC(=O)[C@@H](CC(C)C)NC)[C@H](O)c6ccc(c(Cl)c6)O5)c5ccc(O)c(c5)-c5c(O)cc(O)cc5[C@@H](C(=O)O)NC4=O)O[C@H](CO)[C@@H](O)[C@@H]3O)O[C@@H](C)[C@@H]2O)cc1`
< 8 ng/mL

MIC for CCCCC1CCC(CN[C@@]2(C)C[C@@H](O[C@H]3[C@H](Oc4c5cc6cc4Oc4ccc(cc4Cl)[C@@H](C[C@H]4C[C@](C)(N)[C@@H](O)[C@H](C)O4)[C@]4(C)NC(=O)[C@H](NC(=O)[C@@H]6NC(=O)[C@H](CC(N)=O)NC(=O)[C@H](NC(=O)[C@@H](CC(C)C)NC)[C@H](O)c6ccc(c(Cl)c6)O5)c5ccc(O)c(c5)-c5c(O)cc(O)cc5[C@@H](C(=O)O)NC4=O)O[C@H](CO)[C@@H](O)[C@@H]3O)O[C@@H](C)[C@@H]2O)CC1 (some centres undefined) ?
< 8 ng/mL

Any idea what MIC was measured for `CN[C@H](CC(C)C)C(=O)N[C@H]1C(=O)N[C@@H](CC(N)=O)C(=O)N[C@H]2C(=O)N[C@H]3C(=O)N[C@](C)(C(=O)N[C@H](C(=O)O)c4cc(O)cc(O)c4-c4cc3ccc4O)[C@H](C[C@H]3C[C@](C)(N)[C@@H](O)[C@H](C)O3)c3ccc(c(Cl)c3)Oc3cc2cc(c3O[C@@H]2O[C@H](CO)[C@@H](O)[C@H](O)[C@H]2O[C@@H]2C[C@](C)(NCc3ccc(Oc4ccccc4)cc3)[C@@H](O)[C@H](C)O2)Oc2ccc(cc2Cl)[C@H]1O` ?
< 8 ng/mL

Okay, next one:
Returns the measured MIC for the input compound. Input: `CN[C@H](CC(C)C)C(=O)N[C@H]1C(=O)N[C@@H](CC(N)=O)C(=O)N[C@H]2C(=O)N[C@H]3C(=O)N[C@](C)(C(=O)N[C@H](C(=O)O)c4cc(O)cc(O)c4-c4cc3ccc4O)[C@H](C[C@H]3C[C@](C)(N)[C@@H](O)[C@H](C)O3)c3ccc(c(Cl)c3)Oc3cc2cc(c3O[C@@H]2O[C@H](CO)[C@@H](O)[C@H](O)[C@H]2O[C@@H]2C[C@](C)(NCc3ccc(-c4ccc(Cl)cc4)cc3)[C@@H](O)[C@H](C)O2)Oc2ccc(cc2Cl)[C@H]1O`
< 8 ng/mL
